# tested.target: 17β-hydroxysteroid dehydrogenase 1 (17β-HSD1) (Homo sapiens, UniProt P14061)
# Construct: gene HSD17B1
# Sequence (P14061 2-328): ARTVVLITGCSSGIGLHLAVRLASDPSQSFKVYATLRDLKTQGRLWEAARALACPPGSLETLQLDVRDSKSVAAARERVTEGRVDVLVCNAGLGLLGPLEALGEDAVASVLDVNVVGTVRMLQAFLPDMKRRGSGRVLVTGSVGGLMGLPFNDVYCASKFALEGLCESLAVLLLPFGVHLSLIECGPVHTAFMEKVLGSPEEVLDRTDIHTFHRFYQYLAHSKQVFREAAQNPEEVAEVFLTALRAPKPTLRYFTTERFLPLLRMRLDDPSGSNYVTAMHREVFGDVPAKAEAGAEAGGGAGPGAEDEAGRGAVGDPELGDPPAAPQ
# protocol: biochemical
# Parameters: species or system HEK-293 (transiently transfected); Radiolabeled estrone to estradiol conversion (200 nM, NADPH) in lysates of 17β-HSD1-transfected cells; TLC and scintillation counting
metric: inhibition at 20 µM (%)

Some molecules with known inhibition at 20 µM results, for comparison:
INSERT INTO assay_data (molecule, numeric_result) VALUES
  ('CCOC(=O)c1ccc(O)cc1 [2-P, ethylparaben]', 7),
  ('COC(=O)c1ccc(O)cc1 [methylparaben]', 0),
  ('CCCCCCOC(=O)c1ccc(O)cc1 [6-P, hexylparaben]', 80),
  ('CCCOC(=O)c1ccc(O)cc1 [propylparaben]', 37);

P: O=C(Oc1ccccc1)c1ccc(O)cc1 [phenylparaben]
Q: O=C(O)c1ccc(O)cc1 [p-hydroxybenzoic acid]
R: CCCCCCCOC(=O)c1ccc(O)cc1 [heptylparaben]
S: CCCCOC(=O)c1ccc(O)cc1 [butylparaben]
Ascending by inhibition at 20 µM, please: list the molecules accordingly. Please write the labels in the order that was asked for.
Q, P, S, R
(Q: 7%, P: 35%, S: 52%, R: 83%)
